# assayed.system: GST-Hu-p50 (Homo sapiens, UniProt P19838 7-356)
# Sequence (P19838 7-356): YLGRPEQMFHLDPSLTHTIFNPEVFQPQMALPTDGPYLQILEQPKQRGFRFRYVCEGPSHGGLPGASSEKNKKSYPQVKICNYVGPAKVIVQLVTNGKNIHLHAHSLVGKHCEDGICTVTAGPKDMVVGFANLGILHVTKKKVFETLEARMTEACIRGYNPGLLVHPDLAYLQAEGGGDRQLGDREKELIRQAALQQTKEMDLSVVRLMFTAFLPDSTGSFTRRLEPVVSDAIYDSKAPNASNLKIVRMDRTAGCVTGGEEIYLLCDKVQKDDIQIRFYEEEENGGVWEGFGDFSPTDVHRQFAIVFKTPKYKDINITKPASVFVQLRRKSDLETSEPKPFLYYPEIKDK
# experiment.notes: protein-binding microarray (PBM); PBM: ~300 nM protein, 6 mM HEPES pH 7.8, 80 mM KCl, 0.5 mM EDTA, 0.5 mM EGTA, 6% glycerol, 35 ng/ul poly-dIdC, 1% milk, 1 h, room temperature; high values mean tight binding
# particulars: dsDNA, one strand shown
Classes (binding signal): low interval: < 2 z-score; middle interval: ≥ 2 z-score and < 4 z-score; high interval: ≥ 4 z-score

Example results:
chain=CCGATTAACATCAGCTGAGTAGGTGATGTTAATCGGGTCTTGATTCGCTTGACGCTGCTG class_name="low interval"
chain=CCGATTAACATCAGGGACTTACCTGATGTTAATCGGGTCTTGATTCGCTTGACGCTGCTG class_name="high interval"
chain=CCGATTAACATCAAGTGTTTCCCTGATGTTAATCGGGTCTTGATTCGCTTGACGCTGCTG class_name="low interval"

Now for a further sequence.
Challenge: # bin lookup: classify "CCGATTAACATCAATAAATACCCTGATGTTAATCGGGTCTTGATTCGCTTGACGCTGCTG" by its binding signal
Response given: high interval

====

# assayed.system: GST-Hu-p50 (Homo sapiens, UniProt P19838 7-356)
# experiment.notes: protein-binding microarray (PBM); PBM: ~300 nM protein, 6 mM HEPES pH 7.8, 80 mM KCl, 0.5 mM EDTA, 0.5 mM EGTA, 6% glycerol, 35 ng/ul poly-dIdC, 1% milk, 1 h, room temperature; high values mean tight binding
# particulars: dsDNA, one strand shown
test.readout: binding signal (z-score)
One number for each entry, in z-score.

List reported binding signal for each of these sequences:
1. CCGATTAACATCAGACTGGGAAATGATGTTAATCGGGTCTTGATTCGCTTGACGCTGCTG
2. CCGATTAACATCAGAAAATTACCTGATGTTAATCGGGTCTTGATTCGCTTGACGCTGCTG
3. CCGATTAACATCACAAAAAATTTTGATGTTAATCGGGTCTTGATTCGCTTGACGCTGCTG
4. CCGATTAACATCAGGACAATCCCTGATGTTAATCGGGTCTTGATTCGCTTGACGCTGCTG
5. CCGATTAACATCACCCCTCCCCGTGATGTTAATCGGGTCTTGATTCGCTTGACGCTGCTG
6. CCGATTAACATCAACAAAGTCCCTGATGTTAATCGGGTCTTGATTCGCTTGACGCTGCTG
7. CCGATTAACATCAGAAAATTTCCTGATGTTAATCGGGTCTTGATTCGCTTGACGCTGCTG
8. CCGATTAACATCAGGGAATTCACTGATGTTAATCGGGTCTTGATTCGCTTGACGCTGCTG

Response given:
1.43
4.34
1.65
1.84
3.01
4.3
1.69
4.11

Challenge: I would be grateful if you could share the reported binding signal for "CCGATTAACATCAGGAATGTACCTGATGTTAATCGGGTCTTGATTCGCTTGACGCTGCTG" .
Response given: 2.14

====

# assayed.system: GST-Nv-NF-kB (Ser allele) (Nematostella vectensis, UniProt A7UNT2 2-411)
# Sequence: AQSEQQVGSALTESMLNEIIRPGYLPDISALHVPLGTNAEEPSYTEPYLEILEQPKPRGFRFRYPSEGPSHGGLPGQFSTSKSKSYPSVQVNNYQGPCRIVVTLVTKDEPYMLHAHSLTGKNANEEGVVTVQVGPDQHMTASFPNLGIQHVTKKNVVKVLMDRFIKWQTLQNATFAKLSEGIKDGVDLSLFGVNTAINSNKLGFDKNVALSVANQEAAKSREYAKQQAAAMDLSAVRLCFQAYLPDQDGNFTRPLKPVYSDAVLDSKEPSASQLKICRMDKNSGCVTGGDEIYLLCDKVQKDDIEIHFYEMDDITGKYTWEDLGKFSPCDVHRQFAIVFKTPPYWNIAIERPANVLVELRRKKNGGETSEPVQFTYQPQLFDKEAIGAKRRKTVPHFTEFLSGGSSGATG
# experiment.notes: protein-binding microarray (PBM); PBM: ~300 nM protein, 6 mM HEPES pH 7.8, 80 mM KCl, 0.5 mM EDTA, 0.5 mM EGTA, 6% glycerol, 35 ng/ul poly-dIdC, 1% milk, 1 h, room temperature; high values mean tight binding
# particulars: dsDNA, one strand shown
test.readout: binding signal (z-score)
Give bare numbers, in z-score.

Here is how some sequences turned out for binding signal.
chain=CCGATTAACATCAACATGGGAATTGATGTTAATCGGGTCTTGATTCGCTTGACGCTGCTG unit_descriptor=z-score endpoint_result=1.75
chain=CCGATTAACATCAAAAGACCCCCTGATGTTAATCGGGTCTTGATTCGCTTGACGCTGCTG unit_descriptor=z-score endpoint_result=5.47
chain=CCGATTAACATCAATCCCCCCCCTGATGTTAATCGGGTCTTGATTCGCTTGACGCTGCTG unit_descriptor=z-score endpoint_result=6.45
chain=CCGATTAACATCACATCTTTCCCTGATGTTAATCGGGTCTTGATTCGCTTGACGCTGCTG unit_descriptor=z-score endpoint_result=4.65
chain=CCGATTAACATCAGGAATCCCTATGATGTTAATCGGGTCTTGATTCGCTTGACGCTGCTG unit_descriptor=z-score endpoint_result=1.72

Provide reported binding signal for each item, in the same order as listed.
1. CCGATTAACATCACGCATCCCCCTGATGTTAATCGGGTCTTGATTCGCTTGACGCTGCTG
2. CCGATTAACATCAGGGGAGTATATGATGTTAATCGGGTCTTGATTCGCTTGACGCTGCTG
3. CCGATTAACATCAGGCGTTCCCCTGATGTTAATCGGGTCTTGATTCGCTTGACGCTGCTG
4. CCGATTAACATCAATATCCCCCCTGATGTTAATCGGGTCTTGATTCGCTTGACGCTGCTG

Response given:
1. 6.09
2. 4.21
3. 5.77
4. 6.44

====

# assayed.system: GST-Nv-NF-kB (Ser allele) (Nematostella vectensis, UniProt A7UNT2 2-411)
# Sequence: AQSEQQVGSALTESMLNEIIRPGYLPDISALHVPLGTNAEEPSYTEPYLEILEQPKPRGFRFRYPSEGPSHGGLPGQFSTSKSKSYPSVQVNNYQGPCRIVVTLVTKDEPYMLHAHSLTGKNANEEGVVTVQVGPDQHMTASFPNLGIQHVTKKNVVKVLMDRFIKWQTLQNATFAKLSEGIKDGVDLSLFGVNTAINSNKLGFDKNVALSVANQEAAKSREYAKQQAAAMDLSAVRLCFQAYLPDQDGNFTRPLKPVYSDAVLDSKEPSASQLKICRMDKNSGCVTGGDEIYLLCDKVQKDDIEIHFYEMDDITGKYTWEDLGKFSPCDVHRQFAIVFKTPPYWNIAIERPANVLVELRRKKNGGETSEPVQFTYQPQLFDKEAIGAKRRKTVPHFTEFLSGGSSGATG
# experiment.notes: protein-binding microarray (PBM); PBM: ~300 nM protein, 6 mM HEPES pH 7.8, 80 mM KCl, 0.5 mM EDTA, 0.5 mM EGTA, 6% glycerol, 35 ng/ul poly-dIdC, 1% milk, 1 h, room temperature; Ap Aiptasia and Nv Nematostella (sea anemones) / Co Capsaspora / Aq Amphimedon (sponge) / Dm Drosophila / Hu human; RHD is the Rel homology domain; high values mean tight binding
# particulars: dsDNA, one strand shown
test.readout: binding signal
Write the quantity with the unit trailing the number.

Example results:
chain=CCGATTAACATCAAGGGGAGTCCTGATGTTAATCGGGTCTTGATTCGCTTGACGCTGCTG endpoint_result="4.97 z-score"
chain=CCGATTAACATCAAAAATTTTCCTGATGTTAATCGGGTCTTGATTCGCTTGACGCTGCTG endpoint_result="1.32 z-score"
chain=CCGATTAACATCAGGGAATGACCTGATGTTAATCGGGTCTTGATTCGCTTGACGCTGCTG endpoint_result="1.65 z-score"
chain=CCGATTAACATCACTTTACCCCCTGATGTTAATCGGGTCTTGATTCGCTTGACGCTGCTG endpoint_result="4.4 z-score"
chain=CCGATTAACATCAGGGAATATTATGATGTTAATCGGGTCTTGATTCGCTTGACGCTGCTG endpoint_result="5.41 z-score"
chain=CCGATTAACATCAGGAGTCCCCCTGATGTTAATCGGGTCTTGATTCGCTTGACGCTGCTG endpoint_result="5.14 z-score"
chain=CCGATTAACATCACGGGAAGTCCTGATGTTAATCGGGTCTTGATTCGCTTGACGCTGCTG endpoint_result="1.71 z-score"
chain=CCGATTAACATCAGGGATTTACCTGATGTTAATCGGGTCTTGATTCGCTTGACGCTGCTG endpoint_result="5.26 z-score"
chain=CCGATTAACATCAACATGGGAAATGATGTTAATCGGGTCTTGATTCGCTTGACGCTGCTG endpoint_result="2.18 z-score"
chain=CCGATTAACATCAAGTATTTCCCTGATGTTAATCGGGTCTTGATTCGCTTGACGCTGCTG endpoint_result="5.24 z-score"

Need binding signal for each of these sequences.
1. CCGATTAACATCAATTTGGGAAATGATGTTAATCGGGTCTTGATTCGCTTGACGCTGCTG
2. CCGATTAACATCAGACAATTCCCTGATGTTAATCGGGTCTTGATTCGCTTGACGCTGCTG
3. CCGATTAACATCAAGGGGGGGAGTGATGTTAATCGGGTCTTGATTCGCTTGACGCTGCTG
4. CCGATTAACATCAGGGAGATTTATGATGTTAATCGGGTCTTGATTCGCTTGACGCTGCTG
5. CCGATTAACATCAGGGATATTTATGATGTTAATCGGGTCTTGATTCGCTTGACGCTGCTG
6. CCGATTAACATCAAGTACTTCCCTGATGTTAATCGGGTCTTGATTCGCTTGACGCTGCTG
7. CCGATTAACATCAACTATCCCCCTGATGTTAATCGGGTCTTGATTCGCTTGACGCTGCTG

Response given:
1: 2.36 z-score; 2: 4.51 z-score; 3: 4.08 z-score; 4: 4.27 z-score; 5: 2.29 z-score; 6: 1.34 z-score; 7: 5.03 z-score

Challenge: binding signal of "CCGATTAACATCAGACATGGGAATGATGTTAATCGGGTCTTGATTCGCTTGACGCTGCTG" on GST-Nv-NF-kB (Ser allele) (Nematostella vectensis, UniProt A7UNT2 2-411)?
Response given: 1.34 z-score
